Numbers sourced from patent US20230016424A1.

Exercise: state measured CLint for each of the compounds provided.
- Experimental protocol: Liver Microsome stability (In Vitro Metabolism)
- Format: in vitro ADME
- Measurement context: Monkey liver microsomes

Entry CC1C=CC=CC=CC=CC=CC=CC=CC(OC2OC(C)C(O)C(N)C2O)CC2OC(O)(CC(O)CC(O)C(O)CCC(O)CC(O)CC(=O)OC(C)C(C)C1O)CC(O)C2C(=O)NCCO (stereo not shown) [Compound AA] , CLint reported as <13 mL/min/kg

Entry CNC(=O)C1C(O)CC2(O)CC(O)CC(O)C(O)CCC(O)CC(O)CC(=O)OC(C)C(C)C(O)C(C)C=CC=CC=CC=CC=CC=CC=CC(OC3OC(C)C(O)C(N)C3O)CC1O2 (stereo not shown) [AN] , CLint reported as <13 mL/min/kg

Entry CC1C=CC=CC=CC=CC=CC=CC=CC(OC2OC(C)C(O)C(N)C2O)CC2OC(O)(CC(O)CC(O)C(O)CCC(O)CC(O)CC(=O)OC(C)C(C)C1O)CC(O)C2C(=O)NCCN (stereo not shown) [AM] , CLint reported as <13 mL/min/kg

Entry COC(=O)C(Cc1c[nH]cn1)NC(=O)C1C(O)CC2(O)CC(O)CC(O)C(O)CCC(O)CC(O)CC(=O)OC(C)C(C)C(O)C(C)C=CC=CC=CC=CC=CC=CC=CC(OC3OC(C)C(O)C(N)C3O)CC1O2 (stereo not shown) [AL] , CLint reported as <14 mL/min/kg

====

- Experimental protocol: Liver Microsome stability (In Vitro Metabolism)
- Type: in vitro ADME
- Measurement context: Monkey liver microsomes, no cofactor 60 min
Assay metric: Remaining (T = NCF60 min) (%)
The figure you give is taken to be in %; do not add the unit.

Entry CNC(=O)C1C(O)CC2(O)CC(O)CC(O)C(O)CCC(O)CC(O)CC(=O)OC(C)C(C)C(O)C(C)C=CC=CC=CC=CC=CC=CC=CC(OC3OC(C)C(O)C(N)C3O)CC1O2 (centres unmarked) [AN] , Remaining (T = NCF60 min) reported as 135

Entry CC1C=CC=CC=CC=CC=CC=CC=CC(OC2OC(C)C(O)C(N)C2O)CC2OC(O)(CC(O)CC(O)C(O)CCC(O)CC(O)CC(=O)OC(C)C(C)C1O)CC(O)C2C(=O)NCCN (centres unmarked) [AM] , Remaining (T = NCF60 min) reported as 121

Entry C[C@@H]1[C@H](O)[C@@H](C)/C=C/C=C/C=C/C=C/C=C/C=C/C=C/[C@H](OC2O[C@H](C)[C@@H](O)[C@H](N)[C@@H]2O)C[C@@H]2O[C@](O)(C[C@@H](O)C[C@@H](O)[C@H](O)CC[C@@H](O)C[C@@H](O)CC(=O)O[C@H]1C)C[C@H](O)[C@H]2C(=O)O (some centres unmarked) [AmB, Amphotericin B] , Remaining (T = NCF60 min) reported as 105

Entry COC(=O)C(Cc1c[nH]cn1)NC(=O)C1C(O)CC2(O)CC(O)CC(O)C(O)CCC(O)CC(O)CC(=O)OC(C)C(C)C(O)C(C)C=CC=CC=CC=CC=CC=CC=CC(OC3OC(C)C(O)C(N)C3O)CC1O2 (centres unmarked) [AL] , Remaining (T = NCF60 min) reported as 106

Entry CC1C=CC=CC=CC=CC=CC=CC=CC(OC2OC(C)C(O)C(N)C2O)CC2OC(O)(CC(O)CC(O)C(O)CCC(O)CC(O)CC(=O)OC(C)C(C)C1O)CC(O)C2C(=O)NCCO (centres unmarked) [Compound AA] , Remaining (T = NCF60 min) reported as 103
